# TESTED_TARGET: T1, human TNFα (human, UniProt P01375 77-233)
# T1 construct: also called TAR1; TNF alpha
# T1 sequence (P01375 77-233 limits assumed): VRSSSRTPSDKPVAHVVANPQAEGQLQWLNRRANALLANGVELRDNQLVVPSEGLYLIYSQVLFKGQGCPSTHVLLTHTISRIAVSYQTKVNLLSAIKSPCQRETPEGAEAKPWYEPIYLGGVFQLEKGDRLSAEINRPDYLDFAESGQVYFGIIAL
# ASSAY_DETAILS: TNF receptor assay (ELISA): inhibition of TNF binding to plate-bound TNF receptor 1-Fc
REPORTED_METRIC: IC50

Some solved entries appear below for comparison.
INSERT INTO measurements (binder, value) VALUES
  ('TAR1-5CH/dAb1 CK (Fab, V domains shown) V domain 1: DIQMTQSPSSLSASVGDRVTITCRASQSIFMNLLWYQQKPGKAPKLLIYNASVLQSGVPSRFSGSGSGTDFTLTISSLQPEDFATYYCQQVVWRPFTFGQGTKVEIK V domain 2: DIQMTQSPSSLSASVGDRVTITCRASQSIYDALEWYQQKPGKAPKLLIYTASRLQSGVPSRFSGSGSGTDFTLTISSLQPEDFATYYCQQVMQRPVTFGQGTKVEIK', '~90 nM'),
  ('dAb1 CH/TAR1-5-19CK (Fab, V domains shown, also called TAR1-5-19CK d1CH) V domain 1: DIQMTQSPSSLSASVGDRVTITCRASQSIYDALEWYQQKPGKAPKLLIYTASRLQSGVPSRFSGSGSGTDFTLTISSLQPEDFATYYCQQVMQRPVTFGQGTKVEIK V domain 2: DIQMTQSPSSLSASVGDRVTITCRASQSIDSYLHWYQQKPGKAPKLLIYSASELQSGVPSRFSGSGSGTDFTLTISSLQPEDFATYYCQQVVWRPFTFGQGTKVEIK', '~6 nM');

Bench note: what IC50 did dAb3CH/TAR1-5CK (Fab, V domains shown, also called TAR1-5CK d3CH) V domain 1: DIQMTQSPSSLSASVGDRVTITCRASQSVKEFLWWYQQKPGKAPKLLIYMASNLQSGVPSRFSGSGSGTDFTLTISSLQPEDFATYYCQQKFKLPRTFGQGTKVEIK V domain 2: DIQMTQSPSSLSASVGDRVTITCRASQSIFMNLLWYQQKPGKAPKLLIYNASVLQSGVPSRFSGSGSGTDFTLTISSLQPEDFATYYCQQVVWRPFTFGQGTKVEIK show?
~100 nM
